Hey, just so you know, these numbers are from patent US20250353864A1.

# CLK1 (Homo sapiens (Human)): pIC50 values follow
# Sequence (P49759 whole entry): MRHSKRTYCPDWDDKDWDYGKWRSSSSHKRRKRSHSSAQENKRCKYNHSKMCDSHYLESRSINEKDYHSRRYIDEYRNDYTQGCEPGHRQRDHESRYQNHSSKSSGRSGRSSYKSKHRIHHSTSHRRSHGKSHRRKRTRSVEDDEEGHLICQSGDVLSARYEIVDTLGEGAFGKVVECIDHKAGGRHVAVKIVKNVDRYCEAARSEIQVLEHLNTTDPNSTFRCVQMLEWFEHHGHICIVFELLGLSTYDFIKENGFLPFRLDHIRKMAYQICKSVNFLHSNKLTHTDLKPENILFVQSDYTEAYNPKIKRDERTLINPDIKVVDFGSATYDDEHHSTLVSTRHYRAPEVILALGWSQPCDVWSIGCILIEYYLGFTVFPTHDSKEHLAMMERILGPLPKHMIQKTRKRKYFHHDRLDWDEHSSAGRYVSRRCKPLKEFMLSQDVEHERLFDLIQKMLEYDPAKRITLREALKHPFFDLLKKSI
Formally, pIC50 is defined as -log10 of the concentration c, with c in mol/L.

Some solved entries appear below for comparison.
[[record]]
smiles_repr = "CCNc1nn(CCO)c2c1/C=C/c1n[nH]c3ccc(cc13)-c1cnn(C)c1O[C@@H](C)CN(C)C2"
test_system = "CLK1 (Homo sapiens (Human))"
readout_label = "pIC50"
obs_value = 9.19

[[record]]
smiles_repr = "CCOc1nn([C@H](C)CO)c2c1/C=C/c1n[nH]c3ccc(cc13)-c1cnn(C)c1O[C@@H](C)CN(C)C2"
test_system = "CLK1 (Homo sapiens (Human))"
readout_label = "pIC50"
obs_value = 9.07

[[record]]
smiles_repr = "CCOc1noc2c1/C=C/c1n[nH]c3ccc(cc13)-c1cnn(C)c1O[C@@H](C)CN(C)C2"
test_system = "CLK1 (Homo sapiens (Human))"
readout_label = "pIC50"
obs_value = 9.09

[[record]]
smiles_repr = "CCN1Cc2c(c(OC(C)C)nn2C[C@H](C)O)/C=C/c2n[nH]c3cc(F)c(cc23)-c2cnn(C)c2O[C@@H](C)C1"
test_system = "CLK1 (Homo sapiens (Human))"
readout_label = "pIC50"
obs_value = 8.92


Then there is this compound:
Challenge: Using the record for CC(C)Oc1nn(CCO)c2c1/C=C/c1n[nH]c3ccc(cc13)-c1cnn(C)c1O[C@@H](C#N)CN(C)C2 , state its measured pIC50.
Response given: 8.97
